# Test System: K-Ras G13C (Homo sapiens (Human), UniProt P01116+P62937, G13C)
# Sequence (P01116-2 other isoform, or with tags, fused parts or gaps G13C): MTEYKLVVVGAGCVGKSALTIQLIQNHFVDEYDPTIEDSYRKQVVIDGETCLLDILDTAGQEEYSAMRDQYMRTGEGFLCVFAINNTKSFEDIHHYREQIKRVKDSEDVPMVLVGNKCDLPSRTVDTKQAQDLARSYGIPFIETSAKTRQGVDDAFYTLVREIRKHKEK
# Sequence (P62937 whole entry): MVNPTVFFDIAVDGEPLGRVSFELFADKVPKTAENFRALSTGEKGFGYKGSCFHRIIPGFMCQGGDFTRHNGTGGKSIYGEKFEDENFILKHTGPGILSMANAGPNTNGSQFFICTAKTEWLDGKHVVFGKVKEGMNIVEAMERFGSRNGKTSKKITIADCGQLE
# Assay Comment: Ras-Raf (BRAF RBD) disruption / FRET / MOA assay, KRAS G13C
# Assay type: biochemical
# Experimental Parameters: KRAS G13C; Ras-Raf disruption/FRET/MOA assay; read-out: IC50* KRAS G13C FRET data
Endpoint Label: IC50

Prompt line: Look at this compound and give its reported IC50. CCn1c(-c2cccnc2[C@H](C)OC)c2c3cc(ccc31)-c1cc(O)cc(c1)C[C@H](NC(=O)[C@H](C(C)C)N(C)C(=O)N1CCCN(C(=O)/C=C/CN(C)C)CC1)C(=O)N1CCC[C@H](N1)C(=O)OCC(C)(C)C2 (atropisomer, axis not shown)
Response line: 10 to 100 nM

Prompt line: Look at this compound and give its reported IC50. CCn1c(-c2cccnc2[C@H](C)OC)c2c3cc(ccc31)-c1cccc(c1)C[C@H](NC(=O)[C@@H](CO[C@H]1CCN(C(=O)C#CC(C)(C)N(C)C)C1)C(C)C)C(=O)N1CCC[C@H](N1)C(=O)OCC(C)(C)C2 (atropisomer, axis not shown)
Response line: 1000 to 10000 nM

Prompt line: Look at this compound and give its reported IC50. `CCn1c(-c2cncnc2)c2c3cc(ccc31)-c1cc(O)cc(c1)C[C@H](NC(=O)[C@H](C(C)C)N(C)C(=O)[C@H]1CCN(C(=O)C#CCN3CCOCC3)C1)C(=O)N1CCC[C@H](N1)C(=O)OCC(C)(C)C2`
Response line: 1000 to 10000 nM

Prompt line: Look at this compound and give its reported IC50. C=CC(=O)N1CC[C@H](C(=O)N(C)[C@H](C(=O)N[C@H]2Cc3cc(cc(C(F)F)c3)-c3ccc4c(c3)c(c(-c3cc(N5CCN(C)CC5)cnc3[C@H](C)OC)n4CC(F)(F)F)CC(C)(C)COC(=O)[C@@H]3CCCN(N3)C2=O)C(C)C)C1 (atropisomer, axis not shown)
Response line: 100 to 1000 nM

Prompt line: Look at this compound and give its reported IC50. CCn1c(-c2cccnc2[C@H](C)OC)c2c3cc(ccc31)-c1cccc(c1)C[C@H](NC(=O)[C@@H](COC1CN(C(=O)C#CC(C)(C)N3CCC3)C1)C(C)C)C(=O)N1CCC[C@H](N1)C(=O)OCC(C)(C)C2 (atropisomer, axis not shown)
Response line: 1000 to 10000 nM

Prompt line: Look at this compound and give its reported IC50. C=CS(=O)(=O)N1CCC(C(=O)N(C)[C@H](C(=O)N[C@H]2Cc3cccc(c3)-c3ccc4c(c3)c(c(-c3cncnc3)n4CC)CC(C)(C)COC(=O)[C@@H]3CCCN(N3)C2=O)C(C)C)C1 (single isomer, unassigned)
Response line: 1000 to 10000 nM

Prompt line: Look at this compound and give its reported IC50. C=CC(=O)N(C)C1CCN(C(=O)N(C)[C@H](C(=O)N[C@H]2Cc3nc(cs3)-c3ccc4c(c3)c(c(-c3cccnc3[C@H](C)OC)n4CC)CC(C)(C)COC(=O)[C@@H]3CCCN(N3)C2=O)C(C)C)CC1 (atropisomer, axis not shown)
Response line: 10 to 100 nM

Prompt line: Look at this compound and give its reported IC50. C=CC(=O)N1CCC(F)(C(=O)N(C)[C@H](C(=O)N[C@H]2Cc3nc(cs3)-c3ccc4c(c3)c(c(-c3cccnc3[C@H](C)OC)n4CC)CC(C)(C)COC(=O)[C@@H]3CCCN(N3)C2=O)C(C)C)CC1 (atropisomer, axis not shown)
Response line: 100 to 1000 nM

Prompt line: Look at this compound and give its reported IC50. `C=CC(=O)N1CC[C@H](C(=O)N(C)[C@H](C(=O)N[C@H]2Cc3cc(O)cc(c3)-c3ccc4nc(-c5cccnc5COC)c(n4c3)CC(C)(C)COC(=O)[C@@H]3CCCN(N3)C2=O)C(C)C)C1`
Response line: > 10000 nM

Prompt line: Look at this compound and give its reported IC50. C=CC(=O)N1CC2(C1)OCCCN2C(=O)N(C)[C@H](C(=O)N[C@H]1Cc2nc(cs2)-c2ccc3c(c2)c(c(-c2cccnc2[C@H](C)OC)n3CC)CC(C)(C)COC(=O)[C@@H]2CCCN(N2)C1=O)C(C)C (atropisomer, axis not shown)
Response line: 1000 to 10000 nM

Prompt line: Look at this compound and give its reported IC50. CCn1c(-c2cccnc2[C@H](C)OC)c2c3cc(ccc31)-c1csc(n1)C[C@H](NC(=O)[C@H](C(C)C)N(C)C(=O)N(C)C1CN(C(=O)/C=C/CN(C)C)C1)C(=O)N1CCC[C@H](N1)C(=O)OCC(C)(C)C2 (atropisomer, axis not shown)
Response line: 100 to 1000 nM

Prompt line: Look at this compound and give its reported IC50. C=CC(=O)N1CC[C@H](C(=O)N(C)[C@H](C(=O)N[C@H]2CC3=NC=C(O3)c3ccc4c(c3)c(c(-c3cccnc3[C@H](C)OC)n4CC)CC(C)(C)COC(=O)[C@@H]3CCCN(N3)C2=O)C(C)C)C1 (atropisomer, axis not shown)
Response line: 1000 to 10000 nM

Prompt line: Look at this compound and give its reported IC50. `CCn1c(-c2cccnc2[C@H](C)OC)c2c3cc(ccc31)-c1cccc(c1)C[C@H](NC(=O)[C@H](C(C)C)N(C)C(=O)N1CCC13CN(C(=O)C#CC(C)(C)N(C)C)C3)C(=O)N1CCC[C@H](N1)C(=O)OCC(C)(C)C2`
Response line: 100 to 1000 nM

Prompt line: Look at this compound and give its reported IC50. C=CC(=O)N1CC2(COCCN2C(=O)N(C)[C@H](C(=O)N[C@H]2Cc3nc(cs3)-c3ccc4c(c3)c(c(-c3cccnc3[C@H](C)OC)n4CC)CC(C)(C)COC(=O)[C@@H]3CCCN(N3)C2=O)C(C)C)C1 (atropisomer, axis not shown)
Response line: > 10000 nM

Prompt line: Look at this compound and give its reported IC50. `C=CC(=O)N1CC[C@H](C(=O)N(C)[C@H](C(=O)N[C@H]2Cc3cc(O)cc(c3)-c3ccc4c(c3)c(c(-c3cn(C)nc3[C@H](C)OC)n4CC)CC(C)(C)COC(=O)[C@@H]3CCCN(N3)C2=O)C(C)C)C1`
Response line: 1000 to 10000 nM
